systemName: CYP3A4 (Homo sapiens, UniProt P08684)
Sequence (P08684 whole entry): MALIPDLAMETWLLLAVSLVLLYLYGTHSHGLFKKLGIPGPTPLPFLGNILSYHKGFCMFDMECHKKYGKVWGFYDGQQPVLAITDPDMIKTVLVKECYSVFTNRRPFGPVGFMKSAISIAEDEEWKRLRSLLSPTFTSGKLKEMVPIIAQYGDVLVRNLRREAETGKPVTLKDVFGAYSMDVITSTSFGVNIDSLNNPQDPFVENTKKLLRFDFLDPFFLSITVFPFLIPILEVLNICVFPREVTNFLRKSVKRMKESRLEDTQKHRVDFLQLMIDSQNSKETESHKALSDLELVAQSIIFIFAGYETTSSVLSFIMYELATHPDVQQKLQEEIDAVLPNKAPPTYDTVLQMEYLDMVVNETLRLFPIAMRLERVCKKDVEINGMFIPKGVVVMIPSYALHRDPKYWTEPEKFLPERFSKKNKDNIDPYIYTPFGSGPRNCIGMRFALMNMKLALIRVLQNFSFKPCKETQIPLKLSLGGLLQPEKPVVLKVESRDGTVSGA
assayInfo: Inhibition of human His-tagged CYP3A4 expressed in Escherichia coli TOPP3 using BFC as substrate assessed as residual activity after 10 mins by fluorescence assay in presence of NADPH and cytochrome b5 relative to control
Format: ADME
conditionSet: probe BFC, read-out: Activity
valueKind: activity at 10 min

Qu. Give activity at 10 min for O=C(Nc1ccc(OC(F)(F)F)cc1)c1sccc1NCc1ccnc2ccccc12 [OSI-930]
Ans. 71%

###

systemName: CYP3A4 (Homo sapiens, UniProt P08684)
assayInfo: Inhibition of human His-tagged CYP3A4 expressed in Escherichia coli TOPP3 using BFC as substrate assessed as residual activity after 20 mins by fluorescence assay in presence of NADPH and cytochrome b5 relative to control
Type: ADME
conditionSet: probe BFC, read-out: Activity
valueKind: activity at 20 min
Please answer in the form of a number followed by its unit of measurement.

Qu. With CYP3A4 (Homo sapiens, UniProt P08684) as the test system, provide measured activity at 20 min for this compound: "O=C(Nc1ccc(OC(F)(F)F)cc1)c1sccc1NCc1ccnc2ccccc12"
Ans. 50%

###

systemName: CYP3A5 (Homo sapiens, UniProt P20815)
Sequence (P20815 whole entry): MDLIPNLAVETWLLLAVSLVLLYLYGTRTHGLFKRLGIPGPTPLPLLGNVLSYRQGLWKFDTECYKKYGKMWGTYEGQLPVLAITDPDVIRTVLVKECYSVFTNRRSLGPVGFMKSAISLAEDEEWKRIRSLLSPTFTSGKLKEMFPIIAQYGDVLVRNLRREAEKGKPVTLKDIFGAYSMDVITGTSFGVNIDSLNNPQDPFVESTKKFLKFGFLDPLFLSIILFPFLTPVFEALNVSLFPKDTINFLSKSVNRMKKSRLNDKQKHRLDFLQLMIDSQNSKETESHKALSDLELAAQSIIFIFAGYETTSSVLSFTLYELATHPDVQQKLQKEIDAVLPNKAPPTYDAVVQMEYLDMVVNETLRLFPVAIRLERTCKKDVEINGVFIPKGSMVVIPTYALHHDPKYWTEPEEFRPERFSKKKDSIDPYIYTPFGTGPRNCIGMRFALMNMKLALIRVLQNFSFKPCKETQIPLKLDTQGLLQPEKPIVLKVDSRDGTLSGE
assayInfo: Inhibition of human His-tagged CYP3A5 expressed in Escherichia coli TOPP3 using BFC as substrate assessed as residual activity after 10 mins by fluorescence assay in presence of NADPH and cytochrome b5 relative to control
Assay type: ADME
conditionSet: probe BFC, read-out: Activity
valueKind: activity at 10 min (%)
Answer with a number only, understood to be in %.

Qu. Please supply the value of reported activity at 10 min for the item "O=C(Nc1ccc(OC(F)(F)F)cc1)c1sccc1NCc1ccnc2ccccc12"
Ans. 113

###

systemName: CYP3A5 (Homo sapiens)
assayInfo: Inhibition of human His-tagged CYP3A5 expressed in Escherichia coli TOPP3 using BFC as substrate assessed as residual activity after 30 mins by fluorescence assay in presence of NADPH and cytochrome b5 relative to control
Type: ADME
conditionSet: probe BFC, read-out: Activity
valueKind: activity at 0.5 h (%)
Give the value, in units of %, as a plain number.

Qu. Please list activity at 0.5 h recorded for the compound O=C(Nc1ccc(OC(F)(F)F)cc1)c1sccc1NCc1ccnc2ccccc12 [OSI-930]
Ans. 98

###

systemName: CYP3A5 (Homo sapiens, UniProt P20815)
assayInfo: Inhibition of human His-tagged CYP3A5 expressed in Escherichia coli TOPP3 using BFC as substrate assessed as residual activity by fluorescence assay in presence of cytochrome b5
Assay type: ADME
conditionSet: probe BFC
valueKind: activity (%)
Write the number in % without appending the unit.

Qu. Look up and state reported activity for "O=C(Nc1ccc(OC(F)(F)F)cc1)c1sccc1NCc1ccnc2ccccc12"
Ans. 100

###

Catalogue of compounds with associated kinact/KI
systemName: CYP3A4 (Homo sapiens, UniProt P08684)
assayInfo: Ratio of Kinact to Ki for CYP3A4 (unknown origin)
Format: ADME
Use M⁻¹ s⁻¹ as the unit, but write only the number.

Some solved cases for reference:
C#C[C@]1(O)CC[C@H]2[C@@H]3CCc4cc(O)ccc4[C@H]3CC[C@@]21C | 667
CC#C[C@]1(O)CC[C@H]2[C@@H]3CCC4=CC(=O)CCC4=C3[C@@H](c3ccc(N(C)C)cc3)C[C@@]21C | 333
CC(C)=CCC/C(C)=C/COc1c2ccoc2cc2oc(=O)ccc12 | 667

Switching to the query record.
Qu. Return kinact/KI (reported value) for this compound: "CC/C(=C(\c1ccccc1)c1ccc(OCCN(C)C)cc1)c1ccccc1"
Ans. 333

###

systemName: CYP3A4 (Homo sapiens, UniProt P08684)
assayInfo: Inhibition of human His-tagged CYP3A4 expressed in Escherichia coli TOPP3 using BFC as substrate at 100 uM after 30 mins in presence of NADPH and cytochrome b5
Format: ADME
conditionSet: probe BFC
valueKind: inhibition at 0.5 h, 100 µM (%)
Express the result in % but write the number alone.

Qu. Give a short answer stating reported inhibition at 0.5 h, 100 µM for "O=C(Nc1ccc(OC(F)(F)F)cc1)c1sccc1NCc1ccnc2ccccc12" .
Ans. 75

###

systemName: CYP3A4 (Homo sapiens)
assayInfo: Inhibition of human His-tagged CYP3A4 expressed in Escherichia coli TOPP3 using BFC as substrate at 100 uM after 30 mins by spectrophotometry in presence of NADPH and cytochrome b5 relative to control
Assay type: ADME
conditionSet: probe BFC
valueKind: inhibition at 0.5 h, 100 µM (%)
# value in %; strip the unit string

Qu. Give reported inhibition at 0.5 h, 100 µM value for O=C(Nc1ccc(OC(F)(F)F)cc1)c1sccc1NCc1ccnc2ccccc12 [OSI-930]
Ans. 70

Where these numbers come from: ChEMBL document CHEMBL3525969
